Read-out: Human Leukocyte Antigen - DR isotype (HLADR), HLA-DRA (gene 3122)
Assay: BSK_BE3C_HLADR: BioMAP Diversity Plus: BE3C Assay for Human Leukocyte Antigen - DR isotype (HLADR) Biomarker Activity (AID 2283032)
Conditions: primary human bronchial epithelial cells; actives raise or lower the signal
Calls of active or inactive are those of the source. How the source made its calls: active means hit-call score of the fitted dose curve at least 0.9, where 1 is the maximum; inactive means score below 0.9.
Write down one outcome, taken from active, inactive

Reference set (10 entries):
| COMPOUND | LABEL |
| --- | --- |
| COc1ccc(C(=O)c2ccccc2)c(O)c1 | inactive |
| CCCCCCCCCCCC(=O)N(C)CC(=O)O | inactive |
| Nc1nc(N)nc(-c2ccccc2)n1 | inactive |
| C=CC(=O)OCCCCCCCC(C)C | inactive |
| Oc1ccccc1Cc1ccccc1O | inactive |
| CCCCCCCCCCCC(C)=O | inactive |
| CC/C=C\CCOC(=O)c1ccccc1O | active |
| CCOC(=O)C1=NOC(c2ccccc2)(c2ccccc2)C1 | inactive |
| CC(C)[N+](C)(CCOC(=O)C1c2ccccc2Oc2ccccc21)C(C)C | inactive |
| CC(c1cc(C(C)(C)C)cc(C(C)(C)C)c1O)c1cc(C(C)(C)C)cc(C(C)(C)C)c1O | inactive |

What classification did CCOC(=O)C1=NN(c2ccc(Cl)cc2Cl)C(C)(C(=O)OCC)C1 (configuration not stated) end up with in this test? inactive

What classification did Oc1ccc(/C=C/c2cc(O)cc(O)c2)cc1 end up with in this test? active

What classification did C=CCCCCCCCCC=O end up with in this test? inactive

What classification did CCCCCCC=O end up with in this test? inactive

What classification did O=C(Cl)c1c(Cl)c(Cl)c(C(=O)Cl)c(Cl)c1Cl end up with in this test? inactive

What classification did Cc1ccc([N+](=O)[O-])cc1N end up with in this test? inactive

What classification did CCCCCC1=CCCC1=O end up with in this test? inactive

What classification did CC=C(C)C=CC=C(C)C end up with in this test? active

What classification did Oc1c(Cl)cc(Cl)c(Cl)c1Cl end up with in this test? active

What classification did CCNc1nc(NC(C)(C)C)nc(OC)n1 end up with in this test? inactive

###

Target: Hypoxia-inducible factor 1-alpha (Homo sapiens)
Test: ATG_HIF1a_CIS: Attagene CIS-FACTORIAL HepG2 Assay for human Hypoxia Inducible Factor 1 (HIF1A) (AID 2282951)
Details: HepG2 Attagene cis-factorial HIF1a reporter transcription; actives raise or lower the signal
The source made the active and inactive calls. Rule for the calls: active = hit-call score of the fitted dose curve at least 0.9, where 1 is the maximum; inactive = score below 0.9.
Write down one outcome, taken from active, inactive

| COMPOUND | LABEL |
| --- | --- |
| Clc1cccnc1 | inactive |
| Cn1cccc1 | inactive |
| CCCCCC(=O)OCC | inactive |
| COc1ccc(C(=O)/C(Br)=C\C(=O)O)cc1 | active |
| CC(Cl)COP(=O)(OCC(C)Cl)OCC(C)Cl (stereo not drawn) | inactive |

What classification did CC1=CC=C(C(C)C)CC1 end up with in this test? inactive

What classification did CCCCCCCCCCCCC end up with in this test? inactive

What classification did CC(C)C(=O)OCCc1ccccc1 end up with in this test? inactive

What classification did CCc1occc(=O)c1O end up with in this test? inactive

What classification did CN(C)Cc1cc(CN(C)C)c(O)c(CN(C)C)c1 end up with in this test? inactive
